The reported numbers originate from patent US20230340011A1.

TARGET: LXRβ (Homo sapiens (Human))
Sequence (P55055 whole entry, the tested form may be a part): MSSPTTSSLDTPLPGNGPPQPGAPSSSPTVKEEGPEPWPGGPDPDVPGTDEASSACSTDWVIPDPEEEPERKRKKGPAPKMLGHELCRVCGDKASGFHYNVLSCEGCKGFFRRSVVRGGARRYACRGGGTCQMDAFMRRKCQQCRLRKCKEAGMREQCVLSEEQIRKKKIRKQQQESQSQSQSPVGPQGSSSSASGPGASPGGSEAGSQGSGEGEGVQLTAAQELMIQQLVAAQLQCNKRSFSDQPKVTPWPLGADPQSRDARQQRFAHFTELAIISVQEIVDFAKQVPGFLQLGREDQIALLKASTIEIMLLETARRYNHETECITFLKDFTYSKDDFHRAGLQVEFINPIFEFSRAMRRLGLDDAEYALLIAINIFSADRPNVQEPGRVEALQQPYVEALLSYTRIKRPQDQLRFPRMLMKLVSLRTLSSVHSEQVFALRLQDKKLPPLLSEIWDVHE
EXPERIMENT: In vitro assay LXRβ: PathHunter NHR CHO cells, LXRβ / Steroid Receptor Co-activator Peptide enzyme fragment complementation
Type: cell-based
STUDY_CONDITIONS: PathHunter NHR CHO cells, full-length human LXRβ and SRCP, chemiluminescent signal; read-out: LXRβ PPI
ASSAY_METRIC: EC50

In the examples that follow, each entry is paired with its recorded EC50.
# MOLECULE, TARGET, EC50
rows = [
    ("CON(C)C(=O)[C@H](C)C[C@@H](C)[C@H]1CC[C@H]2[C@@H]3CC=C4C[C@@H](O)CC[C@]4(C)[C@H]3CC[C@]12C", "LXRβ (Homo sapiens (Human))", "> 10 µM"),
    ("C[C@H](CCC(=O)N1CCOc2cccnc21)[C@H]1CC[C@H]2[C@@H]3CC=C4C[C@@H](O)CC[C@]4(C)[C@H]3CC[C@]12C", "LXRβ (Homo sapiens (Human))", "1 to 10 µM"),
    ("C[C@H](CCC(=O)N1CCN(c2ccnn2C)C[C@@H]1C)[C@H]1CC[C@H]2[C@@H]3CC=C4C[C@@H](O)CC[C@]4(C)[C@H]3CC[C@]12C", "LXRβ (Homo sapiens (Human))", "> 10 µM"),
    ("COC(=O)N1CCN(C(=O)CC[C@@H](C)[C@H]2CC[C@H]3[C@@H]4CC=C5C[C@@H](O)CC[C@]5(C)[C@H]4CC[C@]23C)C[C@@H]1C", "LXRβ (Homo sapiens (Human))", "> 10 µM"),
    ("CO[C@H]1CCCN(C(=O)CC[C@@H](C)[C@H]2CC[C@H]3[C@@H]4CC=C5C[C@@H](O)CC[C@]5(C)[C@H]4CC[C@]23C)C1", "LXRβ (Homo sapiens (Human))", "0.25 to 1 µM"),
    ("C[C@H](CCC(=O)N1CCN(c2cccnn2)CC1)[C@H]1CC[C@H]2[C@@H]3CC=C4C[C@@H](O)CC[C@]4(C)[C@H]3CC[C@]12C", "LXRβ (Homo sapiens (Human))", "> 10 µM"),
    ("C[C@H](CCc1cccc(C(F)(F)F)n1)[C@H]1CC[C@H]2[C@@H]3CC=C4C[C@@H](O)CC[C@]4(C)[C@H]3CC[C@]12C", "LXRβ (Homo sapiens (Human))", "> 10 µM"),
    ("C[C@H](CCC(=O)N1CCN(C(=O)C2CC2)C[C@@H]1C)[C@H]1CC[C@H]2[C@@H]3CC=C4C[C@@H](O)CC[C@]4(C)[C@H]3CC[C@]12C", "LXRβ (Homo sapiens (Human))", "> 10 µM"),
    ("CCC(=O)N1CCN(C(=O)CC[C@@H](C)[C@H]2CC[C@H]3[C@@H]4CC=C5C[C@@H](O)CC[C@]5(C)[C@H]4CC[C@]23C)[C@@H](C)C1", "LXRβ (Homo sapiens (Human))", "> 10 µM"),
    ("C[C@H](CCC(=O)N1CC2(C1)CC(C)(O)C2)[C@H]1CC[C@H]2[C@@H]3CC=C4C[C@@H](O)CC[C@]4(C)[C@H]3CC[C@]12C", "LXRβ (Homo sapiens (Human))", "> 10 µM"),
]

Give EC50 for all molecules that follow.
1. CCCON(C)C(=O)CC[C@@H](C)[C@H]1CC[C@H]2[C@@H]3CC=C4C[C@@H](O)CC[C@]4(C)[C@H]3CC[C@]12C
2. Cc1nnc(N2CCN(C(=O)CC[C@@H](C)[C@H]3CC[C@H]4[C@@H]5CC=C6C[C@@H](O)CC[C@]6(C)[C@H]5CC[C@]34C)C[C@@H]2C)o1
3. C[C@H](CCC(=O)N(C)C)[C@H]1CC[C@H]2[C@@H]3CC=C4C[C@@H](F)CC[C@]4(C)[C@H]3CC[C@]12C

Reply text:
1. 0.25 to 1 µM
2. > 10 µM
3. > 10 µM
